Data origin: patent US20230051872A1

- measured.on: Human PD-1-Fc (R&D Systems cat #1086-PD-050), biotinylated (human) (UniProt Q15116)
- Sequence (Q15116 25-167 limits assumed): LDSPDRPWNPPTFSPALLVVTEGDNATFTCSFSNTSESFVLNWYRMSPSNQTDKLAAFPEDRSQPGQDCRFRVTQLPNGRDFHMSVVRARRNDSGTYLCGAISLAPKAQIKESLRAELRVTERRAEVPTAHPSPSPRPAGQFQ
- measurement.description: SPR, D-peptidic compound on natural L-PD-1 (Example 1)
property.label: Kd (nM)
Field: numeric (nM). Do not append units.

Look up Kd: RFX-977296 (designed binder, D-protein) TIDQWLLKNAKEDAIAELKKAGITSDLYFNWINVAGSVSSVNFHKNYILKAHA 625
